Test System: Fc-fusion protein of human PSMA (hPSMA-Fc) (Homo sapiens, UniProt Q04609)
Construct: purchased Acro Biosystems PSA-H5264
Sequence (Q04609 44-750 limits assumed): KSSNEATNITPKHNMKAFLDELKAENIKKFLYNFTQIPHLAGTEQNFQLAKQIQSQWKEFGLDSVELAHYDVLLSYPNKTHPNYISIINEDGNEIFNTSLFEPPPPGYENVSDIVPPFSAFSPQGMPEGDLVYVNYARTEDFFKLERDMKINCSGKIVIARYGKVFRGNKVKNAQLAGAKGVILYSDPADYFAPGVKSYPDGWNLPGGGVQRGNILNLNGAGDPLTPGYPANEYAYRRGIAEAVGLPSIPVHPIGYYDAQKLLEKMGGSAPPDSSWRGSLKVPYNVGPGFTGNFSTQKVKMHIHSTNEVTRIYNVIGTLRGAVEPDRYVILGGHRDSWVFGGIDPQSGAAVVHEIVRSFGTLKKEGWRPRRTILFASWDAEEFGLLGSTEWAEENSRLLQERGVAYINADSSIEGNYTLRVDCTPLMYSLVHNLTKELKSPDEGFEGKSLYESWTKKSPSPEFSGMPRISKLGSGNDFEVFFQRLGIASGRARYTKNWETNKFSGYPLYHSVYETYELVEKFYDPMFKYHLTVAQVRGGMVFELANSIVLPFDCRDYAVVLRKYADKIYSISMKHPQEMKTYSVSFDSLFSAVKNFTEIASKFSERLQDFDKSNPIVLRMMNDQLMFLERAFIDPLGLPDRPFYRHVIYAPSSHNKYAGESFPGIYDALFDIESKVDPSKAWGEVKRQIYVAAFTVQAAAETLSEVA
Experimental Details: Surface plasmon resonance assay (Biacore T200, single cycle kinetic)
Format: binding
Condition Notes: SPR, hPSMA-Fc, single cycle kinetic, 25° C.; category; read-out: pKD CAT (converted)
Numbered stars: 1 amine (or outer) side, 2 acyl side, 3 side chain; on linkers, the order of the positions; unused ones are H or OH. Bridge positions count the residues as written; N and C are the ends. Square brackets hold non-standard residues; d marks the D form. Side chains are listed from the residue outwards. Peptide text beside a SMILES is read from it. * marks the point of attachment. DOTA = O=C(O)CN1CCN(CC(=O)O)CCN(CC(=O)*)CCN(CC(=O)O)CC1; Tyr(3-I) = N[C@@H](Cc1ccc(O)c(I)c1)C(=O)O; Phe(4-Cl) = N[C@@H](Cc1ccc(Cl)cc1)C(=O)O; Arg(Me) = CNC(=N)NCCC[C@H](N)C(=O)O; Ethylenediamine = C(CN[*:2])N[*:1]; hArg = N=C(N)NCCCC[C@H](N)C(=O)O; X1 = O=C(CC1CCN([*:1])CC1)[*:2]; Cit = NC(=O)NCCC[C@H](N)C(=O)O; Lys(Me) = CNCCCC[C@H](N)C(=O)O; Tle = CC(C)(C)[C@H](N)C(=O)O; αMeP = C[C@@]1(C(=O)O)CCCN1; 4Abz = Nc1ccc(C(=O)O)cc1; Deg = CCC(N)(CC)C(=O)O; Aib = CC(C)(N)C(=O)O; CO = O=C([*:1])[*:2]; X8 = O=C(CC1CCNCC1)*; NHBu = CCCCN*
Kd listing for selected compounds.

C[C@@H](O)[C@H](NC(=O)[C@@H](NC(=O)[C@@H]1CSSC[C@H](NC(=O)[C@H](Cc2ccccc2)NC(=O)C(C)(C)NC(=O)[C@@H](NC(=O)CC2CCN(C(=O)CN3CCN(CC(=O)O)CCN(CC(=O)O)CCN(CC(=O)O)CC3)CC2)C(C)(C)C)C(=O)N[C@@H](CCCCN)C(=O)N[C@@H](CCCNC(=N)N)C(=O)NC(C)(C)C(=O)N[C@@H](CC(N)=O)C(=O)N1)C(C)(C)C)C(N)=O [PSM-0198] ({DOTA}-[X1][Tle][Aib]FCKR[Aib]NC[Tle]T-NH2; disulfide 5-10) ... 126 to 501 nM
C[C@@H](O)[C@H](NC(=O)CN1CCN(CC(=O)O)CCN(CC(=O)O)CCN(CC(=O)O)CC1)C(=O)NC(C)(C)C(=O)N[C@@H](Cc1ccccc1)C(=O)N[C@H]1CSSC[C@@H](C(=O)N[C@H](C(=O)NCCN)C(C)(C)C)NC(=O)[C@H](CC(N)=O)NC(=O)C(C)(C)NC(=O)[C@H](CCCNC(=N)N)NC(=O)[C@H](CCCCN)NC1=O [PSM-0199] ({DOTA}-T[Aib]FCKR[Aib]NC[Tle]-Ethylenediamine; disulfide 4-9) ... < 12.6 nM
CNCCCC[C@@H]1NC(=O)[C@@H](NC(=O)[C@H](Cc2ccc(O)c(I)c2)NC(=O)C(C)(C)NC(=O)[C@@H](NC(=O)CC2CCNCC2)[C@@H](C)O)CSSC[C@@H](C(=O)N[C@H](C(=O)N[C@H](C(N)=O)[C@@H](C)O)C(C)(C)C)NC(=O)[C@H](CC(N)=O)NC(=O)C(C)(C)NC(=O)[C@H](CCCNC(=N)NC)NC1=O [PSM-0192] (X8-T[Aib][Tyr(3-I)]C[Lys(Me)][Arg(Me)][Aib]NC[Tle]T-NH2; disulfide 4-9) ... > 501 nM
CCCCNC(=O)N[C@H](C(=O)NC(C)(C)C(=O)N[C@@H](Cc1ccc(Cl)cc1)C(=O)N[C@H]1CSSC[C@@H](C(=O)N[C@H](C(=O)N[C@H](C(=O)N2CCC(CC(=O)N[C@H](CCCCNC(=O)CN3CCN(CC(=O)O)CCN(CC(=O)O)CCN(CC(=O)O)CC3)C(N)=O)CC2)[C@@H](C)O)C(C)(C)C)NC(=O)[C@H](CC(N)=O)NC(=O)C(C)(C)NC(=O)[C@H](CCCNC(N)=O)NC(=O)[C@H](CCCCN)NC1=O)[C@@H](C)O [PSM-0204] ({NHBu-CO}-T[Aib][Phe(4-Cl)]CK[Cit][Aib]NC[Tle]T[X1][dK](DOTA)-NH2; disulfide 4-9) ... 12.6 to 126 nM
CCC(CC)(NC(=O)[C@@H](NC(C)=O)[C@@H](C)O)C(=O)N[C@@H](Cc1ccccc1)C(=O)N[C@H]1CSSC[C@@H](C(=O)N[C@H](C(=O)N[C@H](C(N)=O)[C@@H](C)O)C(C)(C)C)NC(=O)[C@H](CC(N)=O)NC(=O)C(C)(C)NC(=O)[C@H](CCCNC(=N)N)NC(=O)[C@H](CCCCN)NC1=O [PSM-0187] (Ac-T[Deg]FCKR[Aib]NC[Tle]T-NH2; disulfide 4-9) ... < 12.6 nM
C[C@@H](O)[C@H](NC(=O)[C@@H](NC(=O)[C@@H]1CSSC[C@H](NC(=O)[C@H](Cc2ccc(Cl)cc2)NC(=O)C(C)(C)NC(=O)CC2CCN(C(=O)CN3CCN(CC(=O)O)CCN(CC(=O)O)CCN(CC(=O)O)CC3)CC2)C(=O)N[C@@H](CCCCN)C(=O)N[C@@H](CCCNC(=N)N)C(=O)NC(C)(C)C(=O)N[C@@H](CC(N)=O)C(=O)N1)C(C)(C)C)C(N)=O [PSM-0248] ({DOTA}-[X1][Aib][Phe(4-Cl)]CKR[Aib]NC[Tle]T-NH2; disulfide 4-9) ... 12.6 to 126 nM

Entry CC(=O)N[C@H](C(=O)NC(C)(C)C(=O)N[C@@H](Cc1ccccc1)C(=O)N[C@H]1CSSC[C@@H](C(=O)N[C@H](C(=O)N[C@H](C(N)=O)[C@@H](C)O)C(C)(C)C)NC(=O)[C@H](CC(N)=O)NC(=O)[C@]2(C)CCCN2C(=O)[C@H](CCCNC(=N)N)NC(=O)[C@H](CCCCN)NC1=O)[C@@H](C)O [PSM-0233] (Ac-T[Aib]FCKR[αMeP]NC[Tle]T-NH2; disulfide 4-9) , Fc-fusion protein of human PSMA (hPSMA-Fc) (Homo sapiens, UniProt Q04609) data, Kd value: < 12.6 nM

Entry C[C@@H](O)[C@H](NC(=O)[C@@H](NC(=O)[C@@H]1CSSC[C@H](NC(=O)[C@H](Cc2ccc(Cl)cc2)NC(=O)C(C)(C)NC(=O)[C@@H](NC(=O)CC2CCN(C(=O)CN3CCN(CC(=O)O)CCN(CC(=O)O)CCN(CC(=O)O)CC3)CC2)[C@@H](C)O)C(=O)N[C@@H](CCCCNC(=N)N)C(=O)N[C@@H](CCCNC(=N)N)C(=O)NC(C)(C)C(=O)N[C@@H](CC(N)=O)C(=O)N1)C(C)(C)C)C(N)=O [PSM-0225] ({DOTA}-[X1]T[Aib][Phe(4-Cl)]C[hArg]R[Aib]NC[Tle]T-NH2; disulfide 5-10) , Fc-fusion protein of human PSMA (hPSMA-Fc) (Homo sapiens, UniProt Q04609) data, Kd value: < 12.6 nM

Entry CC(=O)N[C@H](C(=O)NC(C)(C)C(=O)N[C@@H](Cc1ccccc1)C(=O)N[C@H]1CSSC[C@@H](C(=O)N[C@H](C(=O)N[C@H](C(N)=O)[C@@H](C)O)C(C)(C)C)NC(=O)[C@H](CC(N)=O)NC(=O)[C@H](CCCCNC(=O)c2ccc(NC(=O)CN3CCN(CC(=O)O)CCN(CC(=O)O)CCN(CC(=O)O)CC3)cc2)NC(=O)[C@H](CCCNC(=N)N)NC(=O)[C@H](CCCCN)NC1=O)[C@@H](C)O [PSM-0211] (Ac-T[Aib]FCKRK([4Abz-DOTA])NC[Tle]T-NH2; disulfide 4-9) , Fc-fusion protein of human PSMA (hPSMA-Fc) (Homo sapiens, UniProt Q04609) data, Kd value: < 12.6 nM

Provenance of the data: patent US20260083865A1
